- experimental.protocol: Pharmacokinetics following peroral administration to dogs
- Set-up: species or system beagle dogs
- details: dog, in vivo, po; 2 mg/kg peroral, fed male beagle dogs, 4% Soluplus in SGF pH 2.0
test.readout: AUC(0-inf)
Write your answer as a measured quantity: the number, then the unit.

`CCCn1c(=O)c2[nH]c(-c3cnn(Cc4cccc(C(F)(F)F)c4)c3)nc2n(CC)c1=O.O=C(O)/C=C/C(=O)O` yielded AUC(0-inf) of 2220 ng·h/mL

###

- experimental.protocol: Pharmacokinetics following peroral administration to dogs
- Parameters: species or system beagle dogs
- details: dog, in vivo, po; 10 mg/kg peroral, fed male beagle dogs, 4% Soluplus in SGF pH 2.0
test.readout: Tmax (h)
All answers are understood in h, so give the number only.

`CCCn1c(=O)c2[nH]c(-c3cnn(Cc4cccc(C(F)(F)F)c4)c3)nc2n(CC)c1=O.O=C(O)/C=C/C(=O)O` yielded Tmax of 10.7
